All values here come from patent EP4471048A1.

target: UniProt:Q5VWK5; experiment: biochemical
*1 amine or outer side, *2 acyl side, *3 side chain or, on linkers, in order; H or OH if unused. Where a SMILES comes first, the peptide text is derived from it. Bridges are numbered along the chain shown (N, C = ends). [ ]: non-standard residue; d: D form. 2Nal = N[C@@H](Cc1ccc2ccccc2c1)C(=O)O; AEF = NCCOc1ccc(C[C@H](N)C(=O)O)cc1; 3Pal = N[C@@H](Cc1cccnc1)C(=O)O; αMeL = CC(C)C[C@](C)(N)C(=O)O; Dab = NCC[C@H](N)C(=O)O; X6 = O=C(CN[*:2])[*:1]
property: pIC50
# pIC50 = -log10(concentration in molar units)

# example entries with known answers
CC[C@H](C)[C@@H]1NC(=O)[C@@H]2CCCCNC(=O)CC[C@@H](C(=O)NCCCCCCc3cccnc3)NC(=O)[C@](C)(C(C)C)NC(=O)[C@H](Cc3ccc4ccccc4c3)NC(=O)[C@H](Cc3ccc(OCCN)cc3)NC(=O)[C@H](CCC(=O)N2)NC(=O)[C@H](CCC(N)=O)NC(=O)[C@H](Cc2c[nH]c3ccccc23)NC(=O)[C@H](C(C)C)NC1=O : 6.32
CNC(=O)[C@H](Cc1cccnc1)NC(=O)[C@H](CCN)NC(=O)[C@@H]1CCC(=O)NCC(=O)NCCCC[C@@H]2NC(=O)CC[C@H](NC(=O)[C@H](CCC(N)=O)NC(=O)[C@H](Cc3c[nH]c4ccccc34)NC2=O)C(=O)N[C@@H](Cc2ccc(OCCN)cc2)C(=O)N[C@@H](Cc2ccc3ccccc3c2)C(=O)N[C@@](C)(CC(C)C)C(=O)N1 [Compound 46] (KWQE[AEF][2Nal][αMeL]E[Dab][3Pal]-NHMe; linker 1-8 via X6; lactam N-4) : 8.14

Query: Form: Entry = `CC[C@H](C)[C@@H]1NC(=O)[C@@H]2CCCCNC(=O)CC[C@@H](C(=O)NCC(=O)N[C@H](Cc3cccnc3)C(N)=O)NC(=O)[C@](C)(C(C)C)NC(=O)[C@H](Cc3ccc4ccccc4c3)NC(=O)[C@](C)(Cc3ccccc3)NC(=O)[C@H](CCC(=O)N2)NC(=O)[C@H](CCC(N)=O)NC(=O)[C@H](Cc2c[nH]c3ccccc23)NC(=O)[C@H](C(C)C)NC1=O` | System = UniProt:Q5VWK5 | pIC50 = ____
Result: 6.00
